melting point values for the compounds below.

Example results:
# query: melting point of entry O=C1NCc2ccc(N3CCN(Cc4ccc(-c5ccc(F)cc5)cc4)CC3)cc2N1 220 to 221 °C

Similarly, O=C1NCc2ccc(N3CCN(Cc4ccc(-c5ccccc5)cc4)CC3)cc2N1 ? 134 to 135 °C

Similarly, O=C1NCc2ccc(C3CCN(Cc4cncc(C5=CCCC5)c4)CC3)cc2N1 ? 166 to 167 °C

Similarly, O=C1NCc2ccc(N3CCN(Cc4cncc(-c5ccc(F)cc5)c4)CC3)cc2N1 ? 180 to 181 °C

Similarly, O=C1NCc2ccc(C3CCN(Cc4ccc(-c5ccc(F)cc5)cc4)CC3)cc2N1 ? 160 to 161 °C

Moving on to the next compound.
# query: melting point of entry O=C1NCc2ccc(N3CCN(Cc4cncc(C5=CCCC5)c4)CC3)cc2N1 185 to 186 °C
